Test system: perfused rat pituitary cell system (LH response to LH-RH)
TEST DETAILS: LH-RH inhibiting activity in superfused rat pituitary cell system
Assay type: cell-based
ASSAY CONDITIONS: antagonist to LH-RH ratio 3:1; 0 min
// label = fulfilled if % inhibition of LH response is not less than 90%, otherwise not fulfilled

Solved entries (count: 2):
>  <SUBSTANCE>
Ac-D-Nal(2)-D-Phe(4Cl)-D-Pal(3)-Ser-Tyr-D-Lys[DL-A2 bu(For)2 ]-Leu-Arg-Pro-D-Ala-NH2 [Peptide 15]

>  <LABEL CLASS>
fulfilled

$$$$
>  <SUBSTANCE>
Ac-D-Nal(2)-D-Phe(4Cl)-D-Pal(3)-Ser-Arg-D-Lys[A2 pr(For)2 ]-Leu-Arg-Pro-D-Ala-NH2 [Peptide 3]

>  <LABEL CLASS>
fulfilled

$$$$

Prompt: Quick check: does Ac-D-Nal(2)-D-Phe(4Cl)-D-Trp-Ser-Arg-D-Lys[A2 pr(Ac)2 ]-Leu-Arg-Pro-D-Ala-NH2 [Peptide 23] have % inhibition of LH response greater than or equal to 90%?
Response: not fulfilled

Prompt: Quick check: does Ac-D-Nal(2)-D-Phe(4Cl)-D-Trp-Ser-Arg-D-Lys[A2 pr(For)2 ]-Leu-Arg-Pro-D-Ala-NH2 [Peptide 24] have % inhibition of LH response greater than or equal to 90%?
Response: not fulfilled

Prompt: Quick check: does Ac-D-Nal(2)-D-Phe(4Cl)-D-Pal(3)-Ser-Arg-D-Lys[A2 pr(Car)2 ]-Leu-Arg-Pro-D-Ala-NH2 [Peptide 1] have % inhibition of LH response greater than or equal to 90%?
Response: fulfilled

Prompt: Quick check: does Ac-D-Nal(2)-D-Phe(4Cl)-D-Pal(3)-Ser-Tyr-D-Lys[A2 pr]-Leu-Arg-Pro-D-Ala-NH2 [Peptide 25] have % inhibition of LH response greater than or equal to 90%?
Response: not fulfilled

Prompt: Quick check: does Ac-D-Nal(2)-D-Phe(4Cl)-D-Pal(3)-Ser-Tyr-D-Lys[A2 pr(Ac)2 ]-Leu-Arg-Pro-D-Ala-NH2 [Peptide 8] have % inhibition of LH response greater than or equal to 90%?
Response: fulfilled

Prompt: Quick check: does Ac-D-Nal(2)-D-Phe(4Cl)-D-Pal(3)-Ser-Tyr-D-Lys[DL-A2 bu(Ac)2 ]-Leu-Arg-Pro-D-Ala-NH2 [Peptide 14] have % inhibition of LH response greater than or equal to 90%?
Response: not fulfilled

Prompt: Quick check: does Ac-D-Nal(2)-D-Phe(4Cl)-D-Pal(3)-Ser-Tyr-D-Lys[A2 pr(Car)2 ]-Leu-Arg-Pro-D-Ala-NH2 [Peptide 7] have % inhibition of LH response greater than or equal to 90%?
Response: fulfilled

Prompt: Quick check: does Ac-D-Nal(2)-D-Phe(4Cl)-D-Trp-Ser-Arg-D-Lys[A2 pr(Car)2 ]-Leu-Arg-Pro-D-Ala-NH2 [Peptide 22] have % inhibition of LH response greater than or equal to 90%?
Response: not fulfilled
